Quick reference: growth of the listed items.
system: SK-MEL-2 melanoma; test: NCI-60 one-dose screen, 48 h (100 = growth as untreated, 0 = no growth, -100 = all killed); settings: 10 µM unless noted
The panel holds about 83,000 compounds, 20% with a hit somewhere; the sample as a whole holds those more often. Active and inactive are the calls of the source. How the source made its calls: active means growth percent below 10; inactive means the rest.

COC1OC(C(O)C(O)CO)C(O)C(O)C1O (stereo not drawn)
99.5% (inactive)
CCCCCC(=O)OCCC1CCCCC1
106% (inactive)
O=S(=O)(OCCOS(=O)(=O)c1ccccc1)c1ccccc1
103% (inactive)
Cn1c(=O)c2nc3c(=O)n(C)c(=O)n(C)c3nc2n(C)c1=O
110% (inactive)
CN(C(=S)S(=O)(=O)C12CC3CC(CC(C3)C1)C2)c1ccccc1
69.2% (inactive)

Consider the additional molecule presented here.
Note to self: growth recorded for `O=C(Oc1ccccc1Cl)c1ccc(Cl)cc1Cl` was 109% (inactive)

* * *

Quick reference: growth of the listed items.
system: NCI-H226 lung; assay: NCI-60 one-dose screen, 48 h (100 = growth as untreated, 0 = no growth, -100 = all killed); conditions: 10 µM unless noted
This is part of a sample that, as a whole, favours compounds with a hit. Of some 83,000 tested, about 20% had one in any assay.
Give a bare numeral; the unit % is implied.

Look over these answered cases.
CCc1ccccc1C(=O)N(CC)CC
95.4
Cc1ccc(OC(=O)c2ccccc2)cc1
100

What the record says about `Cc1ccnc(Nc2nc3ccccc3[nH]2)n1` : growth is 108

Looking up NCC(O)C(O)C(O)C(O)CO (centres undefined) , I see its growth listed as 93.4

Documented growth of `Clc1ncnc2nc[nH]c12` : 96.3

Please fill in: growth reported for `CN(CCCN(C)CCC1CCCCC1)CCC1CCCCC1` = 66.9

The recorded growth for entry `CCOC(=O)CNC` equals 98.8

Lab note: `COc1cc(N)c2ncccc2c1Cl` gave growth of 96

# growth (molecule: `Cc1ccc(NC(=O)c2ccccc2Cl)cc1` ) is 108

Memo: `CCCCCCCCCCCCCCCCCC(=O)NCCNC(=O)CCCCCCCCCCCCCCCCC` , reported growth: 107

* * *

test system: OVCAR-3 ovarian; assay: NCI-60 one-dose screen, 48 h; conditions: 10 µM unless noted
The panel holds about 83,000 compounds, 20% with a hit somewhere; the sample as a whole holds those more often. Active and inactive are the calls of the source. The calls were made as follows: active = growth percent below 10; inactive = the rest.
API: response.call in active, inactive

Field: example entries. Status: answers known.
CCOP(=O)(OCC)/C(=C\N1C(=O)CC(=O)NC1=S)C(=O)OC
inactive
CN(C)c1ccc2c(N(C)C)cc(N(C)C)nc2c1
inactive
ClCC(Cl)C1CCC(Cl)C(Cl)C1 (stereo not drawn)
inactive
O=C(O)c1ccc(OCc2ccccc2)cc1
inactive
O=c1cc(C(F)(F)F)[nH]c(=S)[nH]1
inactive

Ask: Would you mind telling me which call this test gave NNc1ncnc2c1ncn2C1OC(CO)C(O)C1O (stereo not drawn) ?
Reply: active

Ask: // return assay outcome for `CCCCN(C=S)CCCC`
Reply: inactive

Ask: I would be grateful if you could indicate the recorded call for N#CCCN1C(=O)CCC1C(=O)O (stereo not drawn) .
Reply: inactive

Ask: Hi, sorry to bother you, what did the test record for `O=C(O)CCCCCNC(=O)OCc1ccccc1` ?
Reply: inactive
